The reported numbers originate from patent US20190119282A1.

What IC50 was measured for each of the following?
Biological target: PAR2 (HT-29 cells, SLIGKV activation) (Homo sapiens)
Construct: host or cells: HT-29 cells
Sequence (P55085 26-397): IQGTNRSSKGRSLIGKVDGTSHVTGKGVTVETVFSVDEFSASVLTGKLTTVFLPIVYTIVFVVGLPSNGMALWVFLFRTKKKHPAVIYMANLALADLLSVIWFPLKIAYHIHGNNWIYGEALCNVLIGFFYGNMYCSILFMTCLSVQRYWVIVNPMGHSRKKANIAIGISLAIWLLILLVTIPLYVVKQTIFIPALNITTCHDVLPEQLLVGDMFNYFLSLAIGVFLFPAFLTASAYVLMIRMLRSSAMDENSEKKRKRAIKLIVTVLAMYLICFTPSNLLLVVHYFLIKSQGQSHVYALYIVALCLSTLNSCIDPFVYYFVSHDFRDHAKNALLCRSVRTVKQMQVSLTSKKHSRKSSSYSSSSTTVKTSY
Experiment: Ca FLIPR TETRA assay, ANTAGONIST mode, stimulation with 8 μM SLIGKV
Type: cell-based
Details: Table 8; reported compounds of WO2005/030773, JP2003286171, JP2004170323; HT-29 cells
Please state the figure in nM; there is no need to write the unit.

Ask | State its IC50: O=C(c1cc2nc(-c3ccccc3)cc(C(F)(F)F)n2n1)N1CCCCCC1 [Compound P-601, reference compound]
Reply | 61

Ask | Determine its reported IC50: CN(CCO)C(=O)c1cc2nc(-c3ccc(Cl)cc3)cc(C(F)(F)F)n2n1 [Compound P-597, reference compound]
Reply | 17400

Ask | Please look at this molecule and report its IC50: O=C(c1nn2c(C(F)(F)F)cc(-c3ccccc3)nc2c1Br)N1CCC(c2ccc(F)cc2)C1 (stereo not shown) [Compound P-608, reference compound]
Reply | 23000

Ask | Report measured IC50; entry is CC1CCCCN1C(=O)c1cc2nc(-c3ccccc3)cc(C(F)(F)F)n2n1 (stereo not shown) [Compound P-595, reference compound]
Reply | 1730

Ask | Supply measured IC50 of CCOC(=O)C1CCN(C(=O)c2cc3nc(-c4ccc(Cl)cc4)cc(C(F)(F)F)n3n2)CC1 [Compound P-605, reference compound] in your reply.
Reply | 73

Ask | Given the molecule CCOC(=O)C1CCN(C(=O)c2cc3nc(-c4ccccc4)cc(C(F)(F)F)n3n2)CC1 [Compound P-603, reference compound] , write its reported IC50.
Reply | 140

Ask | Give a short answer stating reported IC50 for O=C(c1ccccc1)N1CCN(C(=O)c2cc3nc(-c4ccccc4)cc(C(F)(F)F)n3n2)CC1 [Compound P-596, reference compound] .
Reply | 10800

Ask | Entry O=C(c1ccccc1)N1CCN(C(=O)c2cc3nc(-c4ccc(Cl)cc4)cc(C(F)(F)F)n3n2)CC1 [Compound P-606, reference compound] needs its IC50 filled in; supply it.
Reply | 370

Ask | Please list IC50 recorded for the molecule O=C(c1cc2nc(-c3ccc(Cl)cc3)cc(C(F)(F)F)n2n1)N1CCCCCC1 [Compound P-599, reference compound]
Reply | 9810

Ask | Recall and state the measured IC50 for O=C(c1cc2nc(-c3ccccc3)cc(C(F)(F)F)n2n1)N1CCC(O)CC1 [Compound P-609, reference compound] .
Reply | 2800

Ask | Output IC50 of O=C(O)C1CCCN(C(=O)c2cc3nc(-c4ccc(Cl)cc4)cc(C(F)(F)F)n3n2)C1 (stereo not shown) [Compound P-600, reference compound]
Reply | 37000

Ask | Please report IC50 for the following molecule: CCOC(=O)C1CCCCN1C(=O)c1cc2nc(-c3ccc(Cl)cc3)cc(C(F)(F)F)n2n1 (stereo not shown) [Compound P-592, reference compound]
Reply | 57

* * *

Target: PAR2 (HT-29 cells, SLIGKV activation) (Homo sapiens)
Construct: host or cells: HT-29 cells
Assay: Ca FLIPR TETRA assay, ANTAGONIST mode, stimulation with 8 μM SLIGKV
Type: cell-based
Conditions: HT-29 cells, antagonist mode, stimulation with 8 μM SLIGKV
quantity-measured: IC50

Ask | Answer with the recorded IC50 for the compound listed here: Cc1cc(-c2cc(C(C)C)c3nc(C(=O)N4CCN(C(=O)c5ncccn5)CC4(C)C)cn3n2)ccc1F [Compound I-377]
Reply | 19 nM

Ask | Output measured IC50 for this item: CC(C)(C)c1cc(-c2ccc(F)cc2)nn2cc(C(=O)N3CCN(c4cscn4)C(=O)C3(C)C)nc12 [Compound I-266]
Reply | 0.6 nM

Ask | Specify measured IC50 for Cc1n[nH]c(C(=O)N2CCN(C(=O)c3cn4nc(-c5ccc(F)c(C)c5)cc(C(C)(C)C)c4n3)C(C)(C)C2)n1 [Compound I-414] .
Reply | 1 nM

Ask | Provide measured IC50 value, entry: Cc1cc(C(=O)N2CCN(C(=O)c3cn4nc(-c5ccc(F)cc5)cc(C(C)(C)F)c4n3)C(C)(C)C2)[nH]n1 [Compound I-420]
Reply | 1.7 nM

Ask | Give IC50 for the following compound: Cc1cccc(-c2cc(C(C)(C)C)c3nc(C(=O)N4CCN(C(=O)c5ccn[nH]5)CC4(C)C)cn3n2)c1 [Compound I-404]
Reply | 0.9 nM

Ask | Identify measured IC50 corresponding to CC(C)(C)c1cc(-c2ccc(F)cc2)nn2cc(C(=O)N3CCN(CC(=O)O)C(=O)C3(C)C)nc12 [Compound I-518]
Reply | 57 nM

Ask | For CC(C)(C)c1cc(-c2ccc(F)c(Cl)c2)nn2cc(C(=O)N3CCNC(=O)C3(C)C)nc12 [Compound I-438] , write its IC50.
Reply | 1.5 nM

Ask | Indicate the recorded IC50 value for this compound: Cc1cc(C(=O)N2CCN(C(=O)c3cn4nc(C5CCC(F)(F)CC5)cc(C(C)(C)C)c4n3)C(C)(C)C2)[nH]n1 [Compound I-437]
Reply | 0.7 nM

Ask | Determine its reported IC50: CC(C)c1cc(-c2ccc(F)cc2)nn2cc(C(=O)N3CCN(C#N)C(=O)C3(C)C)nc12 [Compound I-274]
Reply | 2.6 nM

Ask | Give reported IC50 value for Cc1cc(C(=O)N2CCN(C(=O)c3cn4nc(-c5ccc(F)c(C)c5)cc(C(C)C)c4n3)C(C)(C)C2)[nH]n1 [Compound I-341]
Reply | 2.1 nM

Ask | Give IC50 for CC(C)(C)c1cc(-c2ccc(F)cc2)nn2cc(C(=O)N3CCN(C(=O)c4cn[nH]c4)CC3(C)C)nc12 [Compound I-228]
Reply | 0.6 nM

Ask | Answer with the recorded IC50 of COC(=O)C12CC(C(=O)N3CCN(C(=O)c4cn5nc(-c6ccc(F)cc6)cc(C(C)(C)C)c5n4)C(C)(C)C3)(C1)C2 [Compound I-530] only.
Reply | 1.3 nM

Ask | For CC(C)(C)c1cc(-c2ccc(F)c(Cl)c2)nn2cc(C(=O)N3CCN(C(=O)c4ccccn4)CC3(C)C)nc12 [Compound I-458] , write its IC50.
Reply | 1.3 nM

Ask | Please look at this compound and report its IC50: CC(C)(C)c1cc(-c2ccc(F)cc2)nn2cc(C(=O)N3CCN(c4nn[nH]n4)C(=O)C3(C)C)nc12 [Compound I-235]
Reply | 0.7 nM

Ask | Input CC(C)(C)c1cc(-c2ccc(F)cc2)nn2cc(C(=O)N3CCNC(=O)C3(C)C)nc12 [Compound I-191] , output reported IC50.
Reply | 1.4 nM

Ask | Find the measured IC50 of CC(C)c1cc(-c2ccc(F)cc2)nn2cc(C(=O)N3CCN(C(=O)c4cncnc4)CC3(C)C)nc12 [Compound I-322] and report it.
Reply | 41.5 nM

Ask | Using known records, supply IC50 for CC(C)c1cc(-c2ccc(F)c(Cl)c2)nn2cc(C(=O)N3CCNC(=O)C3(C)C)nc12 [Compound I-363]
Reply | 5.4 nM

Ask | For the compound COC(=O)[C@H]1CC[C@@H](C(=O)N2CCN(C(=O)c3cn4nc(-c5ccc(Cl)cc5)cc(C(C)C)c4n3)C(C)(C)C2)CC1 [Compound I-539] , give its reported IC50.
Reply | 0.8 nM

Ask | Report IC50, nothing else, for this compound: CC(C)(C)c1cc(-c2ccc(F)cc2)nn2cc(C(=O)N3CCN(c4cn[nH]c4)C(=O)C3(C)C)nc12 [Compound I-310]
Reply | 0.6 nM

Ask | Give me measured IC50, please, for this compound: CC(C)c1cc(-c2ccc(F)cc2)nn2cc(C(=O)N3CCN(C(=O)c4ccnnc4)CC3(C)C)nc12 [Compound I-306]
Reply | 68 nM

Ask | Given CC(C)c1cc(-c2ccc(F)c(Cl)c2)nn2cc(C(=O)N3CCN(C(=O)[C@H]4CC[C@@H](C(=O)O)CC4)CC3(C)C)nc12 [Compound I-495] , respond with its IC50.
Reply | 4.1 nM

Ask | For the compound CC(C)c1cc(-c2cccc(C(F)(F)F)c2)nn2cc(C(=O)N3CCN(C(=O)C(C)(C)O)CC3(C)C)nc12 [Compound I-217] , report IC50.
Reply | 205 nM

Ask | For the compound Cc1nnc(C(=O)N2CCN(C(=O)c3cn4nc(-c5ccc(C(F)(F)F)cc5)cc(C(C)C)c4n3)C(C)(C)C2)o1 [Compound I-280] , give its measured IC50 value.
Reply | 9.6 nM
